Tested on: KM12 colon
assay-remarks: NCI tumour cell line growth inhibition, 48 h

[
  {
    "smiles-repr": "O=c1[nH]c2cc([N+](=O)[O-])c(N/N=C/c3ccc(Cl)cc3Cl)c([N+](=O)[O-])c2[nH]1",
    "TGI": "25.8 µM"
  },
  {
    "smiles-repr": "CN(C)C(=NC#N)N(Cc1ccccc1)Cc1ccccc1",
    "TGI": "> 100 µM"
  },
  {
    "smiles-repr": "Cc1nc2c3c(ccc2[nH]c1=O)C(=O)c1ccccc1C3=O",
    "TGI": "> 100 µM"
  }
]

* * *

Tested on: ACHN renal
assay-remarks: NCI tumour cell line growth inhibition, 48 h
Where a SMILES comes first, the peptide text is derived from it.
Property: TGI; scope: individual compounds
measure-name: TGI

[
  {
    "compound": "C=CCOC(=O)Nc1cccn([C@H](CC(C)C)C(=O)NCCC(C)C)c1=O",
    "assay-system": "ACHN renal",
    "result": "> 100 µM"
  },
  {
    "compound": "Cc1cn(C2CCN(CC3COC(C)(C)O3)O2)c(=O)[nH]c1=O (centres undefined)",
    "assay-system": "ACHN renal",
    "result": "> 100 µM"
  },
  {
    "compound": "CN1CCN(Cc2nc3c(s2)CCc2sccc2-3)CC1",
    "assay-system": "ACHN renal",
    "result": "> 100 µM"
  },
  {
    "compound": "Nc1nn(C(=O)Nc2c(F)cccc2F)c2ccccc12",
    "assay-system": "ACHN renal",
    "result": "> 100 µM"
  },
  {
    "compound": "O=c1[nH]c(=O)n(CCOCP(=O)(O)O)nc1Br",
    "assay-system": "ACHN renal",
    "result": "> 100 µM"
  },
  {
    "compound": "CCC(C)C(NC(=O)C(CC(C)C)NC(=O)CNC(=O)C(NC(=O)C1CCCN1C(=O)C(CC(C)C)NC(=O)C(N)Cc1ccccc1)C(C)CC)C(=O)NC(CC(C)C)C(N)=O (centres undefined) (H-FLPIGLIL-NH2; configuration not given here)",
    "assay-system": "ACHN renal",
    "result": "> 75 µM"
  },
  {
    "compound": "COC(=O)C(c1ccc(OC)cc1)N1C(=O)[C@@H](NC(=O)c2ccccc2)[C@H]1[C@@H](C)O (some centres undefined)",
    "assay-system": "ACHN renal",
    "result": "> 100 µM"
  },
  {
    "compound": "CC(C)(C)c1cc(-c2nc3ccc(N4CCN(CCO)CC4)cc3[nH]2)cc(C(C)(C)C)c1O",
    "assay-system": "ACHN renal",
    "result": "> 100 µM"
  },
  {
    "compound": "CN(C)CCNC(=O)c1ccc2oc3cc4ccccc4c(=O)n3c2c1",
    "assay-system": "ACHN renal",
    "result": "37.6 µM"
  },
  {
    "compound": "CC1=C(C(=O)CC(=O)C(=O)Nc2ccc(C)c(C)c2)Sc2ccccc2N1",
    "assay-system": "ACHN renal",
    "result": "> 100 µM"
  },
  {
    "compound": "O=C(CN=C(CN(c1ccccc1)c1ccccc1)Oc1ccc(Cl)cc1Cl)n1ccnc1",
    "assay-system": "ACHN renal",
    "result": "> 100 µM"
  },
  {
    "compound": "COC(=O)c1oc2c(C(=O)/C=C/c3ccc(OC)cc3)c(OCCN3CCOCC3)ccc2c1C",
    "assay-system": "ACHN renal",
    "result": "3.62 µM"
  },
  {
    "compound": "O=C1c2cc(F)ccc2-c2c1c1ccc([N+](=O)[O-])cc1c(=O)n2CCCBr",
    "assay-system": "ACHN renal",
    "result": "> 100 µM"
  },
  {
    "compound": "O=[N+]([O-])c1ccc2c(c1)C(c1ccccc1Cl)=Nc1c(n[nH]c1-c1cccnc1)N2",
    "assay-system": "ACHN renal",
    "result": "> 25 µM"
  },
  {
    "compound": "CCCCCCCCCCCCCCCCCC(=O)OCC1OC(OC)C(NC(=O)N(CCCl)N=O)C(O)C1O (centres undefined)",
    "assay-system": "ACHN renal",
    "result": "47.3 µM"
  },
  {
    "compound": "CN1C(=O)C2(c3ccccc31)C1CC3C(CO1)C1C2C3(CO)CN1C#N (centres undefined)",
    "assay-system": "ACHN renal",
    "result": "> 100 µM"
  },
  {
    "compound": "O=C(CSSCC(=O)OCCS(=O)(=O)Nc1ccc(Br)cc1)OCCS(=O)(=O)Nc1ccc(Br)cc1",
    "assay-system": "ACHN renal",
    "result": "82.8 µM"
  },
  {
    "compound": "O=C(c1ccccc1)c1nc2ccc(C(F)(F)F)cc2nc1N1CCN(c2ccccc2)CC1",
    "assay-system": "ACHN renal",
    "result": "53.7 µM"
  },
  {
    "compound": "C=C1c2nc3ccccc3n2C=C(c2ccc(Cl)cc2)N1c1ccc(OCCN2CCCCC2)cc1",
    "assay-system": "ACHN renal",
    "result": "> 100 µM"
  }
]

* * *

Test system: COLO 205 colon
assay-remarks: NCI tumour cell line growth inhibition, 48 h
measure-name: log10 TGI (log10 of the value in µM)

[
  {
    "compound": "CCC1(c2ccc(N)cc2)CCC(=O)NC1=O (centres undefined)",
    "log10 TGI": 3.49
  },
  {
    "compound": "Cc1ccc(S(=O)(=O)OCCOCCOCCOCCOCCOS(=O)(=O)c2ccc(C)cc2)cc1",
    "log10 TGI": 1.54
  },
  {
    "compound": "C/C(=C\\C(=N\\NC(=N)N)c1ccccc1)c1ccccc1",
    "log10 TGI": -0.55
  },
  {
    "compound": "O=C1CS(=O)(=O)C(c2cccc(Oc3ccccc3)c2)N1C1CC1 (centres undefined)",
    "log10 TGI": 1.86
  },
  {
    "compound": "CC(C)(C)[Si](C)(C)OCC1OC(n2ccc(=O)[nH]c2=O)C(O[Si](C)(C)C(C)(C)C)[C@]12O[C@@H]2CO (some centres undefined)",
    "log10 TGI": 1.63
  }
]

* * *

List of TGI values.
Tested on: OVCAR-8 ovarian
assay-remarks: NCI tumour cell line growth inhibition, 48 h

[
  {
    "compound": "CC(C)(C)[Si](C)(C)OCC1OC(n2ccc(=O)[nH]c2=O)C(O[Si](C)(C)C(C)(C)C)[C@]12O[C@@H]2CO (stereo not given in full)",
    "comparative-sign": ">",
    "TGI / µM": 100
  },
  {
    "compound": "CC(C(=O)n1ccnc1)N1c2ccccc2Sc2ccccc21 (stereo not given)",
    "comparative-sign": ">",
    "TGI / µM": 100
  },
  {
    "compound": "Cc1cccc(Cl)c1NC(=O)c1cnc(Nc2cc(N3CCOCC3)cc(S(C)(=O)=O)c2)s1",
    "comparative-sign": ">",
    "TGI / µM": 10
  },
  {
    "compound": "CN(C)CCNC(=O)c1ccc2oc3cc4ccccc4c(=O)n3c2c1",
    "comparative-sign": "=",
    "TGI / µM": 76.2
  },
  {
    "compound": "CC1(C)CCCCCCCCCC2CC2CCC(C)(C)C1=O (stereo not given)",
    "comparative-sign": "=",
    "TGI / µM": 74.5
  },
  {
    "compound": "O=C1C=C(c2ccccc2)O/C1=C\\C(=O)c1ccc(Cl)cc1",
    "comparative-sign": "=",
    "TGI / µM": 83.4
  },
  {
    "compound": "CC(C)Cc1ccc(C(C)C(=O)NCc2ccc(Cn3c(=O)sn(CCCI)c3=O)cc2)cc1 (stereo not given)",
    "comparative-sign": "=",
    "TGI / µM": 1.85
  },
  {
    "compound": "O=C1NC(=NCCc2ccccn2)S/C1=C\\c1ccc2ncccc2c1",
    "comparative-sign": ">",
    "TGI / µM": 25
  },
  {
    "compound": "COc1ccccc1NC(=O)CC(=O)N1N=C(c2ccccc2)C(N=Nc2ccc(Cl)cc2)C1=O (stereo not given)",
    "comparative-sign": ">",
    "TGI / µM": 100
  },
  {
    "compound": "CC(=O)N[C@@H](Cc1ccc(OP(=O)(O)O)cc1)C(=O)N[C@H]1CCC(=O)N2CCC[C@@H](C(=O)NCc3ccccc3)N2C1=O",
    "comparative-sign": ">",
    "TGI / µM": 25
  }
]
